system: Hepatitis C virus; test: Antiviral activity HCV in replicon cells assessed as inhibition of NS3-4A protease activity by RT-PCR; format: functional, Hepacivirus hominis
READOUT_TYPE: MIC (µg/mL)

| SMILES_STR | RESULT_NUMBER |
| --- | --- |
| c1ccc2c(c1)CCCc1c[nH]nc1-2 | 6.22 |
| NC(=O)c1ncn([C@@H]2O[C@H](CO)[C@@H](O)[C@H]2O)n1 | 16.1 |
| CCOC(=O)c1cc2c(nc1C)-c1ccccc1CCC2 | 3.58 |
| CC(=O)c1cc2c(nc1C)-c1ccccc1CCC2 | 7.09 |
| N#Cc1cc2c([nH]c1=O)-c1ccccc1CCC2 | 4.45 |
| c1ccc2c(c1)CCCc1cnc3ncnn3c1-2 | 2.21 |
| c1ccc2c(c1)CCCc1ccc(-c3ccc4ccccc4c3)nc1-2 | 5.98 |
| c1ccc2c(c1)CCCc1cnc3nc4ccccc4n3c1-2 | 6 |
| O=c1cc(-c2ccccc2)nc2n(-c3ccccc3)nc(-c3ccc4c(n3)-c3ccccc3CCC4)n12 | 1.15 |
| c1ccc2c(c1)CCCc1cnoc1-2 | 7.66 |
